- SUBJECT OF TEST: T1, human CD27L on the surface of cells (human, UniProt P32970 1-193)
- T1 construct: native on Raji and 786-0 cells, recombinant on 293 cells; also called CD70; TNFSF7
- T1 sequence: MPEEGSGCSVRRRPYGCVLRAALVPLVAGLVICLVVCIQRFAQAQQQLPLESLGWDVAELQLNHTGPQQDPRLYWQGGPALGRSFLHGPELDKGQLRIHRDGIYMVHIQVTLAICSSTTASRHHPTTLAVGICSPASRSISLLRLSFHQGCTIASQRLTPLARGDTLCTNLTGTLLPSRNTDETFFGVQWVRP
- MEASUREMENT DESCRIPTION: binding to cells with native human CD27L (column 'Native cell Avidity EC50 nM'); cell line and method not stated for the figure
VALUE TYPE: pEC50
Answers are plain numbers, as −log10 of the molar value.

Prompt line: State, in one line, measured pEC50 of Ab8 (antibody, human IgG1, kappa, V domains shown, also called A8; unconjugated Ab8) VH: QVQLVESGGGVVQPGRSLRLSCAASGFTFSSYGMHWVRQAPGKGLEWVAVIWYDGSDKYFADSVKGRFTISRDNSKNTLYLQMNSLRAEDTAVYYCARDGIAGARYVYFDYWGQGTLVTVSS VL: DIQMTQSPSSLSASVGDRVTITCRASQGISNYLAWFQQKPGKAPKSLIYAASSLQGGVPSKFSGSGSGTDFTLTISSLQPEDFATYYCQQYYNYPFTFGPGTTVDIKR
Response line: 10.05
